Test system: MDR1
assayRemarks: Permeability in MDCK cells expressing human MDR1 at 0.5 uM after 150 mins by LC-MS/MS analysis
Type: ADME, cell-based, Canis lupus familiaris
conditionParameters: dog, read-out: permeability
measuredProperty: Papp at 2.5 h, 0.5 µM (×10⁻⁶ cm/s)

>>> df
                                   compound       measuredproperty  unitstring  reportedresult
0  Cc1cccc(NC(=O)c2ccc(C(F)(F)F)cc2C(=O)O)n1  Papp at 2.5 h, 0.5 µM  ×10⁻⁶ cm/s             0.3
1                       CC(C)CCN1CC(=O)N=N1  Papp at 2.5 h, 0.5 µM  ×10⁻⁶ cm/s             2.9
2  CC(C)CCN1N=NC(=O)C1C(=O)Nc1cccnc1 (stereo unspecified)  Papp at 2.5 h, 0.5 µM  ×10⁻⁶ cm/s             2.9

----------
system: Sortilin (Homo sapiens) (UniProt Q99523)
Sequence (Q99523 whole entry): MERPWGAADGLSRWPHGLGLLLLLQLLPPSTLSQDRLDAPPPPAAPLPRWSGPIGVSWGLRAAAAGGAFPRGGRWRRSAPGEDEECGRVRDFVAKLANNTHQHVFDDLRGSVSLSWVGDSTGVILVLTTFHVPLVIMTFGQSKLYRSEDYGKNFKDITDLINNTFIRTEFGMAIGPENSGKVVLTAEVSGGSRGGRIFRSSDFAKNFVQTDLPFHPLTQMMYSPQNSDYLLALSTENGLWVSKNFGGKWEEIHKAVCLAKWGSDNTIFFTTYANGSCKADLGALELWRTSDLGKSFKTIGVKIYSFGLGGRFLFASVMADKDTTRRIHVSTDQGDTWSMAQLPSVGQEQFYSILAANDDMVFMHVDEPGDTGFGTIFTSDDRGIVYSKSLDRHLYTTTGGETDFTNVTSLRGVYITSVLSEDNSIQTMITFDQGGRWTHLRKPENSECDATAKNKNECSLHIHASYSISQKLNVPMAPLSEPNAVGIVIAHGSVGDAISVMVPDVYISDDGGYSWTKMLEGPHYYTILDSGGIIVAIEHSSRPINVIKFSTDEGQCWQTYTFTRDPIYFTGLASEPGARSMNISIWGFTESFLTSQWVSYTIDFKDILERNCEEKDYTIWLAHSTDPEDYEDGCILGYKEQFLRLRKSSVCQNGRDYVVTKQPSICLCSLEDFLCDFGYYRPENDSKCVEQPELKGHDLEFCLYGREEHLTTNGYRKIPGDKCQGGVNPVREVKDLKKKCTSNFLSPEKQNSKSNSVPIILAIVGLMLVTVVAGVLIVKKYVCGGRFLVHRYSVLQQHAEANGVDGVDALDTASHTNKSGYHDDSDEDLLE
assayRemarks: Displacement of [3H]-neurotensin from human His6-tagged sortilin at 500 uM pretreated for 30 mins followed by [3H]-neurotensin addition after 6 hrs measured for 360 secs by SPA relative to control
The source made the active and inactive calls. The rule behind the calls is not given here.
measuredProperty: Imax

Please review the following examples before continuing.
>>> df
                      compound  reportedresult
0      O=c1[nH]c(Cc2ccccc2)no1             55%
1          Oc1nc(-c2ccccc2)no1             35%
2     O=C1CN(c2cccc(Cl)c2)N=N1        inactive
3         O=C1CN(c2ccccc2)N=N1             50%
4  O=c1[nH]c(-c2ccc(Cl)cc2)no1        inactive

Reported Imax (Sortilin (Homo sapiens) (UniProt Q99523)) for entry O=c1[nH]c(-c2ccccc2Cl)no1 is inactive

Observed Imax, Sortilin (Homo sapiens) (UniProt Q99523), O=c1cc(-c2ccccc2)o[nH]1 : inactive

Tested on Sortilin (Homo sapiens) (UniProt Q99523), the item O=c1[nH]nc(-c2ccc(Cl)cc2)o1 showed Imax equal to inactive

Record O=C1CC(c2cccc(Cl)c2)=NO1 ; system Sortilin (Homo sapiens) (UniProt Q99523); Imax = 30%

Field Imax (Sortilin (Homo sapiens) (UniProt Q99523)), entry CCC1C(=O)N=NN1CCC(C)C (stereo not given) : 57%

I looked up O=c1[nH]c(-c2cccc(Cl)c2)no1 and its Imax for Sortilin (Homo sapiens) (UniProt Q99523) was 42%

# lookup: O=c1[nH]nc(-c2cccc(Cl)c2)o1 on Sortilin (Homo sapiens) (UniProt Q99523), Imax = inactive

----------
system: Sortilin (Homo sapiens) (UniProt Q99523)
assayRemarks: Displacement of [3H]-neurotensin from human His6-tagged sortilin at 500 uM pretreated for 30 mins followed by [3H]-neurotensin addition after 6 hrs measured for 360 secs by SPA relative to control
The source made the active and inactive calls. The rule behind the calls is not given here.
measuredProperty: Imax

// known answers, use as guide
>>> df
                                   molecule  reportedresult
0                 O=c1[nH]nc(-c2ccccc2Cl)o1             63%
1                  O=C1CN(c2ccc(Cl)cc2)N=N1        inactive
2                      CC(C)Cc1n[nH]c(=O)o1             60%
3                    O=C1CC(c2ccccc2Cl)=NO1             37%
4  CC(C)CCN1N=NC(=O)C1C(C)C (stereo unspecified)           < 20%

Moving on to another molecule below.
// Imax lookup, molecule = O=C1CN(c2ccccc2Cl)N=N1 , result: inactive
